src = patent US11168083B2

Subject Of Test: human activated kallikrein enzyme (Homo sapiens (Human), UniProt P03952)
Sequence (P03952 391-638): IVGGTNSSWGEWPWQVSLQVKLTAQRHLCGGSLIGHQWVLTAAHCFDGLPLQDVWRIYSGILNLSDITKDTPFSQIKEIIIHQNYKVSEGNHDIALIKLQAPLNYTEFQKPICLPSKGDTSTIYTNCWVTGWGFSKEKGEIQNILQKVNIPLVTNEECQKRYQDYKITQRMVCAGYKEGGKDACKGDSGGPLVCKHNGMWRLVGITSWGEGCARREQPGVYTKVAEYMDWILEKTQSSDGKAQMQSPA
Sequence (P03952 20-390 partner): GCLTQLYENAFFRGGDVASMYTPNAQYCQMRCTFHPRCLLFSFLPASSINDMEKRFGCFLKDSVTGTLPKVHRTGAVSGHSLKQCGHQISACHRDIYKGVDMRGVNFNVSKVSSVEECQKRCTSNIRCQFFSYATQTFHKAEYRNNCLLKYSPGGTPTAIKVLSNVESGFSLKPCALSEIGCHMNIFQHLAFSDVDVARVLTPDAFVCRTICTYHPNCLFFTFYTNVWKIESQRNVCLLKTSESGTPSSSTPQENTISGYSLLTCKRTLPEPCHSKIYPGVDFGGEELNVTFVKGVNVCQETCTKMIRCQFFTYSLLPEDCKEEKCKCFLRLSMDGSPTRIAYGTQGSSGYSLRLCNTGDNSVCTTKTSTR
Method Notes: Inhibition of human activated kallikrein enzyme, fluorogenic peptide substrate assay (two formats)
Assay type: biochemical
Condition Label: Table 2; column head prints nM, ranges defined in μM; read-out: pKal EC50
Measured Attribute: EC50

Past entries and their recorded results:
Compound	EC50
CNC(=O)[C@H](CCCCNC(=N)N)NC(=O)c1csc([C@@H]2C[C@@H](N)CN2C(=O)c2cc3ccc(Cl)cc3s2)n1 [Compound 62]	100 to 1000 nM
CNC(=O)[C@@H](CCCCNC(=N)N)NC(=O)c1csc([C@H]2C[C@@H](O)CN2C(=O)c2cn3cc(Cl)ccc3n2)n1 [Compound 10]	> 9900 nM
CNC(=O)[C@H](CCCCNC(=N)N)NC(=O)c1csc([C@@H]2C[C@@H](N)CN2C(=O)c2cnc3ccc(Cl)cc3c2)n1 [Compound 66]	100 to 1000 nM
N=C(N)NCCCCCNC(=O)c1csc([C@@H]2C[C@@H](N)CN2C(=O)c2cn3cc(Cl)ccc3n2)n1 [Compound 46]	100 to 1000 nM

Qu. # input compound: CNC(=O)[C@H](CCCCNC(=N)N)NC(=O)c1csc([C@@H]2C[C@H](N)CN2C(=O)c2cn3cc(Cl)ccc3n2)n1 [Compound 36] ; wanted: its EC50
Ans. ≤ 100 nM

###

Subject Of Test: human activated kallikrein enzyme (Homo sapiens (Human), UniProt P03952)
Method Notes: Inhibition of human activated kallikrein enzyme, fluorogenic peptide substrate assay (two formats)
Format: biochemical
Condition Label: Table 2; column head prints nM, ranges defined in μM; read-out: pKal EC50
Catalogue of EC50 readings, one per entry.

Illustrative cases are given below, each with its answer.
N[C@@H]1C[C@@H](c2nc(C(=O)NCc3ccc4cc(Cl)ccc4c3)cs2)N(C(=O)c2cn3cc(Cl)ccc3n2)C1 > 9900 nM
CNC(=O)[C@H](CCCCNC(=N)N)NC(=O)c1csc([C@H]2CCCN2C(=O)c2cn3cc(Cl)ccc3n2)n1 > 9900 nM
CNC(=O)[C@H](CCCCNC(=N)N)NC(=O)c1csc([C@@H]2C[C@@H](O)CN2C(=O)c2cn3cc(Cl)ccc3n2)n1 > 9900 nM
CNC(=O)[C@H](CCCCNC(=N)N)NC(=O)c1csc([C@@H]2C[C@@H](N)CN2C(=O)c2cc3ccc(C)cc3s2)n1 100 to 1000 nM

// next entry
Qu. Could you share which EC50 value was measured for `CNC(=O)[C@H](CCCCNC(N)=O)NC(=O)c1csc([C@@H]2C[C@@H](N)CN2C(=O)c2cn3cc(Cl)ccc3n2)n1` ?
Ans. > 9900 nM
